Values from patent US20240360228A1

Provide the reported % Blocking of each item.
Biological target: T1, human chemokine (C-C motif) receptor 8 (CCR8) (human, UniProt P51685 1-355)
T1 construct: On human peripheral blood lymphocytes / PBMC (native) or on human CCR8 GFP-transfected Ba/F3 cells; also called hCCR8; human CCR8
T1 sequence (P51685 whole entry): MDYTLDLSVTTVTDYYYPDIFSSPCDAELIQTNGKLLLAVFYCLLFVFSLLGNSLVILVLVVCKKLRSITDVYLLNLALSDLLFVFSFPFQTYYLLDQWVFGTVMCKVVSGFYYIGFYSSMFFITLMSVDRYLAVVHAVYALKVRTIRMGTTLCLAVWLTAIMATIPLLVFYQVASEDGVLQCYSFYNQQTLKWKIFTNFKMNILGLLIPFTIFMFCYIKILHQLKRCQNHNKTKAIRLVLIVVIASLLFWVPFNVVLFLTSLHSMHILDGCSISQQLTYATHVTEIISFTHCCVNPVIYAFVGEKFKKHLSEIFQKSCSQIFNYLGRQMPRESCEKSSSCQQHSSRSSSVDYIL
Test: flow cytometry blocking, PBMC CCR8+ CD4+ cells; competitor PE-AB1 (its MFI is read)
Express your answer as a number followed by its unit.

binder	observed
AB15 (antibody, V domains shown, Hybridoma monoclonal; also called antibody 15; clone 15) VH: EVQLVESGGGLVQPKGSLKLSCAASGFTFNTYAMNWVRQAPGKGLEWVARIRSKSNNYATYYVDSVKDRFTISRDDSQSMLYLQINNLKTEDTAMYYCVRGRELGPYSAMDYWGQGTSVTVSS VL: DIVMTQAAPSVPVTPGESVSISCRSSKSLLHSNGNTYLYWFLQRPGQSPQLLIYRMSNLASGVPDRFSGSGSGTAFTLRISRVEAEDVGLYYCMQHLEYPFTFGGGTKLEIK	-51.8%
AB14 (antibody, V domains shown, Hybridoma monoclonal; also called antibody 14; clone 14) VH: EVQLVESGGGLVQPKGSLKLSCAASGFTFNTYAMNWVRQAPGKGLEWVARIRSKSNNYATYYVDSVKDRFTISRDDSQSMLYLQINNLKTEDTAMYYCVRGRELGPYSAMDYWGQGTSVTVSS VL: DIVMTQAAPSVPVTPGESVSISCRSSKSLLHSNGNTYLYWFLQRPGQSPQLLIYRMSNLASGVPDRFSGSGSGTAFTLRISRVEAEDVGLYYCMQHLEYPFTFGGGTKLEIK	-39.8%
AB11 (antibody, V domains shown, Hybridoma monoclonal; also called antibody 11; clone 11) VH: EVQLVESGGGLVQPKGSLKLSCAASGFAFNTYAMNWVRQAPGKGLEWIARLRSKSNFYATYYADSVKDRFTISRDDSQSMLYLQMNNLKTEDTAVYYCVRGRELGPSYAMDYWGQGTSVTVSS VL: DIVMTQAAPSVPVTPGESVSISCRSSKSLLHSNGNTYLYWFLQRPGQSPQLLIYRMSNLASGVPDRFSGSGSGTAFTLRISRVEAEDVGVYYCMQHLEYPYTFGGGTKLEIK	-48.1%

Now consider a different binder.
## Input Which value of % Blocking has been reported for AB12 (antibody, V domains shown, Hybridoma monoclonal; also called antibody 12; clone 12) VH: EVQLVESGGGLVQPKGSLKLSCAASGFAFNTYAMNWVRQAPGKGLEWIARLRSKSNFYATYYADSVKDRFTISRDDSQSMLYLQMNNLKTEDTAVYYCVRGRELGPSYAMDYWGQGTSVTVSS VL: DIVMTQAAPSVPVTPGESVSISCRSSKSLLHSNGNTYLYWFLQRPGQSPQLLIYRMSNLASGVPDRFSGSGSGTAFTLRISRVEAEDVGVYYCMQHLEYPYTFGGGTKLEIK in the records?
## Output -45.4%
